- TESTED ON: CDK7/Cyclin H/MNAT1 (Homo sapiens, UniProt P50613)
- Construct: purchased Invitrogen PR6749B
- Sequence (P50613 whole entry): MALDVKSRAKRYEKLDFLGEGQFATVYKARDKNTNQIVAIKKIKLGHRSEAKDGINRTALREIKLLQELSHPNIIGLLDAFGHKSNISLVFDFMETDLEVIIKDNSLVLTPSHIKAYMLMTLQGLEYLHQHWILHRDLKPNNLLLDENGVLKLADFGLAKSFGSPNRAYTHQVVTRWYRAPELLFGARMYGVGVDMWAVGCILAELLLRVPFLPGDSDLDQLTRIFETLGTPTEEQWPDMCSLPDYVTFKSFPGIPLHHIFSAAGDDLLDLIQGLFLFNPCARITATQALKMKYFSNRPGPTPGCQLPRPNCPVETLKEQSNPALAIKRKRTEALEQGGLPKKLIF
- Sequence (P51946 whole entry partner): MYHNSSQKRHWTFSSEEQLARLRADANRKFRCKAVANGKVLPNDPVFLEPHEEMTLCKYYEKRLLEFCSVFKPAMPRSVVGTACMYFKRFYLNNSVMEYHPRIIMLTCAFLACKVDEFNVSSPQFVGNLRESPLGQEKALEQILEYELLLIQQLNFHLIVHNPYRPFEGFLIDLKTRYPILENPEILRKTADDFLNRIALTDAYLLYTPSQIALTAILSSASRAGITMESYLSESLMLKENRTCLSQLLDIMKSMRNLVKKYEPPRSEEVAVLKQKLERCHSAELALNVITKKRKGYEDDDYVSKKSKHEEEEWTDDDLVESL
- Sequence (P51948 whole entry partner): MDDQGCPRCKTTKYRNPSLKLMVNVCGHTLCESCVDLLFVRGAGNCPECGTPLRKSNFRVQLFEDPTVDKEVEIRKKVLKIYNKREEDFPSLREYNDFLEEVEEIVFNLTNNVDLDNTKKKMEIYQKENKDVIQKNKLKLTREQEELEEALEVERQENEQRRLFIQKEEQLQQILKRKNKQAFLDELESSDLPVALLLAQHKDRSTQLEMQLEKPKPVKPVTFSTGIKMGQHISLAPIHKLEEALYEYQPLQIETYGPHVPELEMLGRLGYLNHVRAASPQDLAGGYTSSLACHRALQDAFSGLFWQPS
- EXPERIMENT NOTES: Enzymatic assay for CDK7 (FRET based LANCE Ultra kinase assay)
- Assay type: biochemical
- CONDITION DESCRIPTION: CDK7 over CDK5
REPORTED METRIC: CDK5/CDK7: Selectivity of CDK7 inhibition over CDK5 inhibition

MOL	MEASURED
CC(C)c1cnn2c(NCc3ccccc3-c3cc4c(F)cccc4[nH]3)nc(N3CCC(N)CC3)nc12	C (C=less than 20 fold)
CC(C)c1cnn2c(NCc3cccc(-n4cccn4)c3)nc(N3CCC(N)CC3)nc12	C (C=less than 20 fold)
